# target_system: PdtaS (PdtaS-eGFP) (Mycobacterium tuberculosis, UniProt P9WGL5)
# Sequence (P9WGL5 whole entry): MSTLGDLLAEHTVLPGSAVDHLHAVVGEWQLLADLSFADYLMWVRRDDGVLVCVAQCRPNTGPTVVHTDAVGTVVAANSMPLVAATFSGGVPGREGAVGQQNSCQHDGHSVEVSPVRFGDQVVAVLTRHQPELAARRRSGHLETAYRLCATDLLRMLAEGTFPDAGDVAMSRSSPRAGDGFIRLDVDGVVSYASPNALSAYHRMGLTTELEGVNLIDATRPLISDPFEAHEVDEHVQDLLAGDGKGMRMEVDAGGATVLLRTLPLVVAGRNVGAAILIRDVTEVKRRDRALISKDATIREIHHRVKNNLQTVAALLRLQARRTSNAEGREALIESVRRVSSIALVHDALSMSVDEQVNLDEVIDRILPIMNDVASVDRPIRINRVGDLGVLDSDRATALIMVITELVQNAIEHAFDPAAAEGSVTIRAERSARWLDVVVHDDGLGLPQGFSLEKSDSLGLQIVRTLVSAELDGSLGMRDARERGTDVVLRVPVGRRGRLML
pKd: −log10 of the molar value.

{"columns": ["compound", "target_system", "pKd"],
 "data": [
  ["C=CC1=C(C)C2=Cc3c(C=C)c(C)c4[n]3[Fe]([Cl])[n]3c(c(C)c(CCC(=O)O)c3=CC3=NC(=C4)C(C)=C3CCC(=O)O)=CC1=N2 [hemin]", "PdtaS (PdtaS-eGFP) (Mycobacterium tuberculosis, UniProt P9WGL5)", "~7.76"]
]}
